# target: MEK1^CA (human GST-MEK1, constitutively active, Ser218Asp and Ser222Asp) (Homo sapiens, UniProt Q02750, S218D/S222D)
# Construct: GST; made in house; host or cells: Escherichia coli
# Sequence (Q02750 whole entry S218D/S222D): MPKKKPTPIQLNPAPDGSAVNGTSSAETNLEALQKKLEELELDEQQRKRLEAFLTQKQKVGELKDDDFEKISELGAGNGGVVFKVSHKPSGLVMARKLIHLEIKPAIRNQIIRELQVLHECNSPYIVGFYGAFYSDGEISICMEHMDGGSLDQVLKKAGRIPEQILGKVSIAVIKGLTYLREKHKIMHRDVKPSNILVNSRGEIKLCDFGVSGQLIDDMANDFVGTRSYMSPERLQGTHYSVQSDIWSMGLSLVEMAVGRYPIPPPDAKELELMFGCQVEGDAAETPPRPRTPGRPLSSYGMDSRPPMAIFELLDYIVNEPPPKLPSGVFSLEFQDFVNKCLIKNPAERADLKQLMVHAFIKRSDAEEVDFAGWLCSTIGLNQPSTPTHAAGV
# experimental_details: MEK1 enzymatic activity assay (MEK1^CA / ERK2 / MBP, [γ-33P]ATP incorporation)
# Format: biochemical
# measurement_setup: Table 1, compounds of formula I; read-out: Avg IC50
# reported IC50; entries follow

Worked set:
| molecule | IC50 |
| --- | --- |
| CC(CO)NC(=N)c1c(O)nsc1Nc1ccc(Oc2cccc(C(C)(C)C)c2)cc1 (stereo not drawn) | 100 to 500 nM |
| N=C(NCC(O)CO)c1c(O)nsc1Nc1cccc(Br)c1 (stereo not drawn) | 100 to 500 nM |

What does the data say about its IC50? Entry: CCOC(=O)c1cccc(Nc2snc(O)c2C(=N)NCC(O)O)c1 100 to 500 nM

What does the data say about its IC50? Entry: CC(CO)NC(=N)c1c(O)nsc1Nc1ccc(Oc2cccc(F)c2)c(F)c1 (stereo not drawn) 1 to 100 nM

What does the data say about its IC50? Entry: N=C(NCC1CCCCC1)c1c(O)nsc1Nc1ccc(Oc2cc(F)cc(F)c2)cc1 1 to 100 nM

###

# target: MEK1^CA (human GST-MEK1, constitutively active, Ser218Asp and Ser222Asp) (Homo sapiens, UniProt Q02750, S218D/S222D)
# Construct: GST; made in house; host or cells: Escherichia coli
# experimental_details: MEK1 enzymatic activity assay (MEK1^CA / ERK2 / MBP, [γ-33P]ATP incorporation)
# Type: biochemical
# measurement_setup: Table 1, compounds of formula I; read-out: Avg IC50
# reported IC50; entries follow

| molecule | IC50 |
| --- | --- |
| CC(C)NC(=N)c1c(O)nsc1Nc1ccc(Oc2ccc(F)cc2)cc1 | 100 to 500 nM |
| N=C(NO)c1c(O)nsc1Nc1ccc(Oc2cc(Cl)ccc2Cl)cc1 | 1 to 100 nM |
| CC(CO)NC(=N)c1c(O)nsc1Nc1ccc(Oc2cccc(F)c2)cc1 (stereo not drawn) | 1 to 100 nM |
| Cc1cc(Oc2cccc(C(F)(F)F)c2)ccc1Nc1snc(O)c1C(=N)NCC(O)CO (stereo not drawn) | 1 to 100 nM |

What does the data say about its IC50? Entry: N=C(N[C@@H]1CCCC[C@H]1O)c1c(O)nsc1Nc1ccc(Oc2ccccc2)cc1 100 to 500 nM

What does the data say about its IC50? Entry: N=C(NCC1CCCCC1)c1c(O)nsc1Nc1ccc(Oc2cncnc2)cc1 > 500 nM

What does the data say about its IC50? Entry: COCCNC(=N)c1c(O)nsc1Nc1ccc(Oc2cc(F)cc(F)c2)cc1C 1 to 100 nM

What does the data say about its IC50? Entry: N=C(NCC1CCCCC1)c1c(O)nsc1Nc1ccc(OCc2ccccc2)cc1 100 to 500 nM

What does the data say about its IC50? Entry: Cc1cc(Oc2cc(F)cc(F)c2)ccc1Nc1snc(O)c1C(=N)NCC(O)CO (stereo not drawn) 1 to 100 nM

###

# target: MEK1^CA (human GST-MEK1, constitutively active, Ser218Asp and Ser222Asp) (Homo sapiens, UniProt Q02750, S218D/S222D)
# Construct: GST; made in house; host or cells: Escherichia coli
# experimental_details: MEK1 enzymatic activity assay (MEK1^CA / ERK2 / MBP, [γ-33P]ATP incorporation)
# Format: biochemical
# measurement_setup: Table 1, compounds of formula I; read-out: Avg IC50
# reported IC50; entries follow

What does the data say about its IC50? Entry: N=C(NC1CC1)c1c(O)nsc1Nc1ccc(Oc2cc(F)cc(F)c2)cc1 [compound 416] 100 to 500 nM

What does the data say about its IC50? Entry: N=C(NCC(O)CO)c1c(O)nsc1Nc1cccc(Cl)c1 (stereo not drawn) [compound 75] 100 to 500 nM

What does the data say about its IC50? Entry: Cc1cccc(C)c1Oc1ccc(Nc2snc(O)c2C(=N)NC(C)CO)cc1F (stereo not drawn) [compound 276] > 500 nM

What does the data say about its IC50? Entry: N=C(NCCc1ccc(O)cc1)c1c(O)nsc1NCCc1ccc(O)cc1 [compound 114] > 500 nM

What does the data say about its IC50? Entry: CCNC(=N)c1c(O)nsc1Nc1ccc(Oc2ccccc2)cc1 [compound 199] 1 to 100 nM

What does the data say about its IC50? Entry: Cc1ccc(S(=O)(=O)NC(=N)c2c(O)nsc2Nc2ccc(Oc3ccccc3)cc2)cc1 [compound 151] > 500 nM

What does the data say about its IC50? Entry: Cc1cccc(Oc2ccc(Nc3snc(O)c3C(=N)NC(C)CO)cc2)c1C (stereo not drawn) [compound 346] 1 to 100 nM

###

# target: MEK1^CA (human GST-MEK1, constitutively active, Ser218Asp and Ser222Asp) (Homo sapiens, UniProt Q02750, S218D/S222D)
# Construct: GST; made in house; host or cells: Escherichia coli
# experimental_details: MEK1 enzymatic activity assay (MEK1^CA / ERK2 / MBP, [γ-33P]ATP incorporation)
# Format: biochemical
# measurement_setup: Table 2, Ar1-A contains an amido or indolo group; read-out: IC 50
# reported IC50; entries follow

| compound | IC50 |
| --- | --- |
| N=C(NCCO)c1c(O)nsc1Nc1ccc(C(=O)Nc2ccccc2)cc1 | 200 to 1000 nM |
| N=C(NCCCCO)c1c(O)nsc1Nc1ccc(C(=O)NCCCCO)cc1 | > 1000 nM |
| CNC(=N)c1c(O)nsc1Nc1ccc(C(=O)N2CCc3cc(Cl)ccc32)cc1 | 200 to 1000 nM |
| CC(CO)NC(=N)c1c(O)nsc1Nc1ccc(C(=O)N2CCN(C)CC2)cc1 (stereo not drawn) | > 1000 nM |
| N=C(NCC1CCCCC1)c1c(O)nsc1Nc1ccc(C(=O)Nc2ccccc2)cc1 | > 1000 nM |
| N/C(=N\CC1CCCCC1)c1c(O)nsc1Nc1ccccc1C(=O)NCC1CCCCC1 | > 1000 nM |
| CN1CCN(C(=O)c2ccc(Nc3snc(O)c3C(=N)NCCO)cc2)CC1 | > 1000 nM |
| CC(C)NC(=N)c1c(O)nsc1Nc1ccc(C(=O)Nc2ccccc2)cc1 | > 1000 nM |

What does the data say about its IC50? Entry: CC(C)NC(=N)c1c(O)nsc1Nc1ccc(C(=O)N2CCc3ccccc32)cc1 1 to 200 nM

What does the data say about its IC50? Entry: N=C(N)c1c(O)nsc1Nc1ccc(C(=O)N2CCc3cc(Br)ccc32)cc1 1 to 200 nM

###

# reported IC50; entries follow
# target: MEK1^CA (human GST-MEK1, constitutively active, Ser218Asp and Ser222Asp) (Homo sapiens, UniProt Q02750, S218D/S222D)
# Construct: GST; made in house; host or cells: Escherichia coli
# experimental_details: MEK1 enzymatic activity assay (MEK1^CA / ERK2 / MBP, [γ-33P]ATP incorporation)
# Type: biochemical
# measurement_setup: Table 4, R' is (CH2)1 or 2-G; read-out: IC50

Worked set:
| molecule | IC50 |
| --- | --- |
| N=C(NCCN1CCOCC1)c1c(O)nsc1Nc1ccc(Oc2cc(F)cc(F)c2)cc1 [drawing 830] | 100 to 500 nM |
| Cc1ccc(Oc2ccc(Nc3snc(O)c3C(=N)NCC3CCCCC3)cc2)cc1 [drawing 823] | 1 to 100 nM |
| CC1CN(CCNC(=N)c2c(O)nsc2Nc2ccc(Oc3cc(Cl)ccc3Cl)cc2)CC(C)O1 (centres unmarked) | 100 to 500 nM |
| N=C(NCc1ccccc1)c1c(O)nsc1Nc1ccc(C(=O)c2ccccc2)cc1 | 100 to 500 nM |
| N=C(NCC1CCCCC1)c1c(O)nsc1Nc1ccc(Sc2ccc([N+](=O)[O-])cc2)cc1 [drawing 831] | 100 to 500 nM |

What does the data say about its IC50? Entry: N=C(NCCc1cnc[nH]1)c1c(O)nsc1Nc1ccc(Oc2cc(Cl)ccc2Cl)cc1 1 to 100 nM

What does the data say about its IC50? Entry: N=C(NCCN1CCCC1=O)c1c(O)nsc1Nc1ccc(Oc2cc(Cl)ccc2Cl)cc1 1 to 100 nM

What does the data say about its IC50? Entry: N=C(NCC1CCCCC1)c1c(O)nsc1Nc1ccc(Oc2ccccc2)nc1 [drawing 828] 100 to 500 nM

What does the data say about its IC50? Entry: N=C(NCCc1ccccc1)c1c(O)nsc1Nc1ccc(Oc2ccccc2)cc1 [drawing 821] 100 to 500 nM

What does the data say about its IC50? Entry: Cc1ccc(Oc2ccc(Nc3snc(O)c3C(=N)NCC3CCCCC3)cn2)cn1 [drawing 825] > 500 nM

###

# target: MEK1^CA (human GST-MEK1, constitutively active, Ser218Asp and Ser222Asp) (Homo sapiens, UniProt Q02750, S218D/S222D)
# Construct: GST; made in house; host or cells: Escherichia coli
# experimental_details: MEK1 enzymatic activity assay (MEK1^CA / ERK2 / MBP, [γ-33P]ATP incorporation)
# Format: biochemical
# measurement_setup: Table 1, compounds of formula I; read-out: Avg IC50
# Source text: Materials and preparation of reagents: Human GST-MEK1 and the constitutively active allele GST-MEK1^CA (harboring the mutations Ser218Asp and Ser222Asp) were subcloned into the […] expression vector pGEM4Z (Promega, Madison, Wis.) from the wild type human MEK1 cDNA. GST-MEK1^CA was expressed in Escherichia coli and partially purified using Glutathione Sepharose 4B affinity resin (Amersham Pharmacia Biotech, Piscataway, N.J.). […]
# reported IC50; entries follow

Worked set:
| compound | assay_value |
| --- | --- |
| CC(C)NC(=N)c1c(O)nsc1Nc1ccc(Oc2ccc(S(C)(=O)=O)cc2)cc1 | > 500 nM |
| N=C(NC1CCCC1)c1c(O)nsc1Nc1ccc(Oc2ccccc2)cc1 | 1 to 100 nM |
| CC1(C)OCC(CNC(=N)c2c(O)nsc2Nc2ccc(Oc3ccccc3)cc2)O1 (stereo not drawn) | 1 to 100 nM |
| CCCCNC(=N)c1c(O)nsc1Nc1ccc(Oc2ccccc2)cc1 | 100 to 500 nM |
| COC(=O)c1cccc(Nc2snc(O)c2C(=N)NC(C)CO)c1C (stereo not drawn) | 100 to 500 nM |
| CC(C)(C)CCNC(=N)c1c(O)nsc1Nc1ccc(Oc2ccccc2)cc1 [compound 42] | 1 to 100 nM |
| N=C(NCC(c1ccccc1)c1ccccc1)c1c(O)nsc1Nc1ccc(Oc2ccccc2)cc1 | 1 to 100 nM |
| N=C(NCC(O)CO)c1c(O)nsc1Nc1ccc(CO)cc1 (stereo not drawn) | > 500 nM |

Proceed to the following item.
What does the data say about its IC50? Entry: N=C(NCC(O)CO)c1c(O)nsc1Nc1ccc(Oc2ccccc2)cc1 (stereo not drawn) 1 to 100 nM
